Provenance of the data: patent US20130289246A1

Target: soluble 1999 H1 HA (seasonal 1999 H1N1) (Influenza A virus (H1N1, 1999))
Assay: ELISA, supernate; further: test concentration or dose not given here

{"columns": ["binder", "OD"],
 "data": [
  ["mAb 3J10 (antibody, V domains shown) VH: EVQLVESGGGVVQPGRSLRLSCAASGFSFSNYAMHWVRQAPGKGLEWVALISFDGSDKYYADSVKGRFTMSRDNSKNTLYLQMNSLRAEDTAVYYCARDEPYCGGDCFAFDVWGQGTMVTVS VL: QSVLTQPPSVSGAPGQRVTISCTGSSSNIGAGYDVHWYQQLPGTAPKLLIYANNNRPSGVPDRFSGSKSGTSASLAITGLQAEDEADYYCQSYDSSLSGGVFGTGTTVTVLG", "0.711 OD"],
  ["mAb 5I17 (antibody, V domains shown) VH: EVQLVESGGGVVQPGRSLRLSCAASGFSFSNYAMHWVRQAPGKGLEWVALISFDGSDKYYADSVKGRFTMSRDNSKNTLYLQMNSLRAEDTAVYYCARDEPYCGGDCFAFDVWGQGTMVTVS VL: DIQLTQSPSSLSASAGDRVSMTCRASQIISSSLNWYQQKPGKAPKLLIYAASNLQSGVPSRFSGSGSGTDFTLTISSLQPEDFATYYCQQSYSTPPELTFGGGTKVDIKR", "1.93 OD"],
  ["mAb 25J3 (antibody, V domains shown) VH: QVQLQESGPGLVRPSETLSLTCNVSGDSINDYYWSWIRQPPGKGLEWIGYIYYSGSTNYNPSLNSRVTISVEMSKNQFSLILNSVTAADTAVYYCARVDYDSGGSFDPWGQGTLVTVS VL: QSVLTQPPSVSGAPGQRVTISCTGSSSNIGAGYDVHWYQQLPGTAPKLLIYGNSNRPSGVPDRFSGSKSGTSASLAITGLQAEDEADFYCQSYDSRLSGYVFGTGTKVTVLG", "0.071 OD"]
]}
